Attribution: ChEMBL document CHEMBL1201862

- Test system: EKVX
- protocol.notes: NCI tumour cell line growth inhibition, 48 h
Counter-ions that a name gives are not always drawn. Activity calls are given as the source filed them. No stated cut-off is given here; in the data, active = GI50 up to about 1.1 µM and inactive = higher.
Bench note: report the call from T (active), F (inactive)

compound: CCCNC(C#N)c1ccc(C(C#N)NCCC)cc1 (stereo not drawn)
study.target: EKVX
class.assignment: F
//
compound: CC(C)=CCc1c(O)c(CC2=C(O)C(CC=C(C)C)(C(=O)C(C)C)C(O)=C(C)C2=O)c(O)c(C(=O)C(C)C)c1O (stereo not drawn)
study.target: EKVX
class.assignment: F
//
compound: CC(=O)N(C)c1ccc(Nc2ccnc3ccc4nn(C)nc4c23)cc1
study.target: EKVX
class.assignment: F
//
compound: CCOC(=O)CNC(=O)C(CSCc1ccc(Br)cc1)NC(=O)CCC(N)C(=O)OCC (stereo not drawn)
study.target: EKVX
class.assignment: F
//
compound: C/C(=N\Nc1ccccc1Br)c1cccc(/C(C)=N/Nc2ccccc2Br)n1
study.target: EKVX
class.assignment: F

Exam item: Please state the recorded outcome for this compound: NC(=O)NC(=O)C1CCCCC1C(=O)O (stereo not drawn)
Marked response: F

Exam item: What call does the record list for Cc1c2ccncc2c(C)c2c1[nH]c1ccccc12 [ELLIPTECINE] ?
Marked response: T

Exam item: Any idea what this test logged for `COc1cc(-c2cc(O)c3cc4c(cc3n2)OCO4)cc(OC)c1OC` ?
Marked response: F

Exam item: Dear all, I need the recorded test outcome for COc1ccc(N2C(=O)C(Cl)C2c2cc3cc(Br)ccc3nc2Cl)cc1 (stereo not drawn) , thank you.
Marked response: F

Exam item: For CON(C)C(=O)C(Cc1ccccc1)NC(=O)OC(C)(C)C (stereo not drawn) , which call appears in the assay record?
Marked response: F

Exam item: I would be grateful if you could indicate the recorded call for O=C1C2C3CC(C4C5C=CC(C5)C34)C2C2C3CC(C12)C1C2C=CC(C2)C31 (stereo not drawn) .
Marked response: F

Exam item: Returns: the outcome recorded for CCCCOC(=O)CC(CC(=O)OCCCC)(OC(C)=O)C(=O)OCCCC [ACETYLTRIBUTYL CITRATE] in this assay.
Marked response: F

Exam item: Hi, do you know how C=C(C)C1CCC(C(=O)O)CC1 (stereo not drawn) came out in this test?
Marked response: F

Exam item: Please share the test call associated with C/C(=N\NC(N)=S)C(CN(CC(C)C)CC(C)C)C(=O)Nc1ccc(C)cc1C (stereo not drawn) .
Marked response: F

Exam item: Give the logged outcome of this assay for the following compound: O=C1C(CN2CCCCC2)CCCC1CN1CCCCC1 (stereo not drawn)
Marked response: F

Exam item: Call for entry `OCCN1CCN(CCO)Cc2ccccc2OCCOc2ccccc2C1` :
Marked response: F

Exam item: Per the records of this test, what outcome belongs to `O=C(NCCCl)O/N=C/c1cccnc1` ?
Marked response: F

Exam item: Record lookup: outcome of this test for COc1cccc2c1C(=O)c1c(O)c3c(c(O)c1C2=O)CC(O)(C(C)=O)CC3OC1CC([N+](C)(C)C)C(O)C(C)O1 (stereo not drawn) ?
Marked response: F

* * *

- Tested on: NCI/ADR-RES
- protocol.notes: NCI tumour cell line growth inhibition, 48 h
The source made the active and inactive calls. No stated cut-off is given here; in the data, active = GI50 up to about 1.1 µM and inactive = higher.
The entries below come with measured GI50 values attached.

Known GI50 results, listed for orientation:
compound: C/C=C(/C)C(=O)OC1CC(C)[C@H]2CC(=O)C(C)=C2CC1C(C)(C)OC(C)=O (stereo partly specified)
GI50: 22.8 µM (inactive)
//
compound: CCOC(=O)C(NC(C)=O)(Nc1ccc(S(N)(=O)=O)cc1)C(F)(F)F (stereo unspecified)
GI50: > 100 µM (inactive)
//
compound: CN(C)Cc1ccc(C(C)(C)C)cc1-c1cc(C(C)(C)C)ccc1CN(C)C
GI50: > 100 µM (inactive)

Exam item: Which value of GI50 has been reported for `O=C(CCc1cccc(O)c1)NCCCNC(=O)CCc1cccc(O)c1` in the records?
Marked response: > 100 µM (inactive)

Exam item: Fill blank: measured GI50 of the compound `O=C(N/C(=C/c1ccc(Cl)cc1)c1nc2ccccc2c(=O)n1Nc1ccc([N+](=O)[O-])cc1[N+](=O)[O-])c1ccccc1` is ____.
Marked response: > 100 µM (inactive)

Exam item: Item `CCOC(=O)c1c(-c2cccc(Cl)c2)c(C(=O)OC)c(C)c2sc(C=O)nc12` has what recorded GI50?
Marked response: 25.8 µM (inactive)

* * *

- Tested on: UO-31
- protocol.notes: NCI tumour cell line growth inhibition, 48 h
Active and inactive are the calls of the source. No stated cut-off is given here; in the data, active = GI50 up to about 1.1 µM and inactive = higher.
API: response.call in T for active, F for inactive

Answered cases to consult:
compound: CCC(=O)OCN(C)c1nc(N(C)COC(=O)CC)nc(N(C)COC(=O)CC)n1
class.assignment: F

compound: CC1(C)CC(=O)c2c(nc3c4c([nH]c(-c5ccc([N+](=O)[O-])cc5)c24)CC(C)(C)C3)C1
class.assignment: F

compound: Sc1ncnc2c1ncn2Cc1ccco1
class.assignment: F

compound: CC(=NNC(=S)Nc1ccccc1C)c1cccc(C(C)=NNC(=S)Nc2ccccc2C)n1
class.assignment: F

Exam item: Please share the test call associated with `Clc1cc2ns[s+]c2cc1Cl` .
Marked response: F

* * *

- Tested on: OVCAR-3
- protocol.notes: NCI tumour cell line growth inhibition, 48 h
Activity calls are given as the source filed them. Cut-off read from the data, not from the text of the source: active = GI50 up to about 1.1 µM and inactive = higher.
Hello, when you answer, please use one of the following outcomes: Y (active), N (inactive)

compound: COc1cc2c(c(OC)c1OC)-c1ccc(SC)c(=O)cc1C(CC(=O)Oc1ccccc1F)C2 (configuration not stated)
class.assignment: Y
//
compound: Nc1nc(Cl)cc(NCC2(CCO)CCC2)n1
class.assignment: N
//
compound: OC[P+](CO)(CO)C12CC3CC(CC(C3)C1)C2
class.assignment: N
//
compound: CN1C2CCC1/C(=C/c1cccc3c1OCO3)C(=O)/C2=C\c1cccc2c1OCO2
class.assignment: N

Exam item: Assay result, entry `CC(C)OC(=O)OCSc1ccccc1/N=C/c1cccc([N+](=O)[O-])c1` — outcome?
Marked response: N

Exam item: Look up the recorded call for `CC(=O)OCCOCn1cnc2c(Cl)nc(Cl)nc21` in this test.
Marked response: N

Exam item: Recorded call for `O=C(O)c1nc(-c2ccc(Cl)c(Cl)c2)nc2ccc(Cl)cc12` ?
Marked response: N

Exam item: Would you mind telling me which call this test gave CC1CNC(c2cccc(-c3nc(-c4cccc(C5=NC(C)CN5)c4)nc(N(C)C)n3)c2)=N1 (configuration not stated) ?
Marked response: N

Exam item: // return assay outcome for `N#C/C(=C\c1cccc(O)c1)C(N)=O`
Marked response: N

Exam item: Would you mind telling me which call this test gave `N=C(N)NS(=O)(=O)c1ccc(NCc2c3ccccc3nc3ccccc23)cc1` ?
Marked response: N

Exam item: Identify the outcome logged in this assay for the compound shown: `CCOC(CN(C)C(=O)Nc1ccc(Cl)c(Cl)c1)OCC`
Marked response: N

Exam item: What is the recorded call for this compound in the test? CCCN(CCCCC(NC(C)=O)C(=O)NCc1ccccc1)C(=O)N(C)N=O (configuration not stated)
Marked response: N

* * *

- System: NCI-H522
- protocol.notes: NCI tumour cell line growth inhibition, 48 h
Activity calls are given as the source filed them. Cut-off read from the data, not from the text of the source: active = GI50 up to about 1.1 µM and inactive = higher.
Your reply should match one of these outcome classes. y = active, n = inactive

Example entries and their recorded answers appear below.
molecule: Oc1c(N2CCOCC2)cc(-c2cc(N3CCOCC3)c(O)c3ccccc23)c2ccccc12
class.assignment: n
//
molecule: CCOC(=O)C(NC(C)=O)(Nc1ccc(S(N)(=O)=O)cc1)C(F)(F)F (stereo unspecified)
class.assignment: n
//
molecule: O=C(Cc1nc2ccccc2s1)C(=O)Nc1cccc(C(F)(F)F)c1
class.assignment: n
//
molecule: COc1ccc(N2C(=O)[C@@H]3[C@H](C2=O)c2[nH]c4ccccc4c2C2CCC(C(C)(C)C)C[C@@H]23)cc1 (stereo partly specified)
class.assignment: n
//
molecule: O=C(c1ccccc1)c1c(CC(O)c2ccccc2)n(C(=O)c2ccccc2)c2ccccc12 (stereo unspecified)
class.assignment: n
//
molecule: N=C(N)N/N=C\c1c(-c2cccc([N+](=O)[O-])c2)nc2sc(Cl)cn12
class.assignment: n
//
molecule: COC(=O)N/N=C/C(=C/Nc1ccccc1)[N+](=O)[O-]
class.assignment: n
//
molecule: CCCCCCCCCCCCOCCCOP(=O)([O-])OCC[N+](C)(C)C
class.assignment: n
//
molecule: Cc1cc(C)n(-c2nc3ccccc3c(=O)n2-c2ccccc2)n1
class.assignment: n
//
molecule: CCCCCC(/C=C/c1ncccc1OCCCCCC(=O)O)=N\NC1=NCCN1
class.assignment: n

Exam item: Test call, this molecule: COC(=O)[C@]1(C)CCC[C@@]2(C)C1CCC1=CC3(C(C)C)CCC12OO3 (stereo partly specified)
Marked response: n

Exam item: // param item: O=C(O)C(Cc1cccs1)NC(=O)C(F)(F)F (stereo unspecified) ; yields the recorded call
Marked response: n

Exam item: Hello, I am checking results. What call was entered for `Cc1ccc(S(=O)(=O)CNC(=S)CCCC(=S)NCS(=O)(=O)c2ccc(C)cc2)cc1` ?
Marked response: n

Exam item: Status in this test for `CCOc1ccc(N/C(=C(/C(Cl)=C(/Cl)Nc2ccccc2)[N+](=O)[O-])n2nnc3ccccc32)cc1` ?
Marked response: n
